conditions: in n-butanol, 283.15 K
Observable: solubility (mole fraction)
Write no unit; give the number alone.

CNC(=O)c1cc(Oc2ccc(NC(=O)Nc3ccc(Cl)c(C(F)(F)F)c3)cc2)ccn1.Cc1ccc(S(=O)(=O)O)cc1: 0.000132

# next compound below
Briefly, solubility (mole fraction) measured for "CNC(=O)c1cc(Oc2ccc(NC(=O)Nc3ccc(Cl)c(C(F)(F)F)c3)cc2)ccn1" : 0.000645

* * *

The following compounds are listed with their measured solubility (mole fraction) values.
conditions: in isopropanol, 303.15 K
Write no unit; give the number alone.

CNC(=O)c1cc(Oc2ccc(NC(=O)Nc3ccc(Cl)c(C(F)(F)F)c3)cc2)ccn1: 0.00104

# next compound below
Briefly, solubility (mole fraction) measured for "CNC(=O)c1cc(Oc2ccc(NC(=O)Nc3ccc(Cl)c(C(F)(F)F)c3)cc2)ccn1.Cc1ccc(S(=O)(=O)O)cc1" : 0.00016
